- test.description: Compound stability in rat liver microsomes
- Type: in vitro ADME
- assay.setup: pH 7.4, in vivo CLint extrapolated
quantity.measured: CLint scaled at 5 μM (mL/min/kg)

molecule.smiles	CLint scaled at 5 μM, mL/min/kg
Cc1c(C(=O)Nc2ccc(Oc3ccnc(N)c3Cl)cc2F)c(=O)n(-c2ccccc2)n1C	67.8

P. Cc1c(C(=O)Nc2ccc(Oc3ccnc(N)c3Cl)c(F)c2)c(=O)n(-c2ccccc2)n1C
Q. Cc1c(C(=O)Nc2ccc(Oc3ccnc(N)c3)cc2F)c(=O)n(-c2ccccc2)n1C
Which has the smaller recorded CLint scaled at 5 μM, P or Q ? Identify your selection by its label.
Q

====

- test.description: Pharmacokinetics after intravenous and oral administration in rats
- Assay type: in vivo
- assay.setup: iv dosing, 2 mg/kg
quantity.measured: clearance (CL) after iv dosing (mL/min/kg)

Guide cases for clearance (CL) after iv dosing, answers given:
compound	unit.of.measurement	clearance (CL) after iv dosing
Cc1c(C(=O)Nc2ccc(Oc3ccnc(N)c3Cl)cc2F)c(=O)n(-c2ccccc2)n1C [Ex. 31]	mL/min/kg	8.83
CC(=O)Nc1cc(Oc2ccc(NC(=O)c3c(C)n(C)n(-c4ccccc4)c3=O)nc2)ccn1 [Ex. 17]	mL/min/kg	0.5
CC(=O)Nc1cc(Oc2ccc(NC(=O)c3c(C)n(C)n(-c4ccccc4)c3=O)cc2F)ccn1 [Ex. 23]	mL/min/kg	0.5

A. Cc1c(C(=O)Nc2ccc(Oc3ccnc(N)c3)cc2F)c(=O)n(-c2ccccc2)n1C [Ex. 30]
B. Cc1c(C(=O)Nc2cc(F)c(Oc3ccnc(N)c3Cl)cc2F)c(=O)n(-c2ccccc2)n1C [Ex. 11]
Which has the smaller recorded clearance (CL) after iv dosing, A or B ? Identify your selection by its label.
B
(B: 9.5 mL/min/kg, A: 22 mL/min/kg)

a. Cc1c(C(=O)Nc2ccc(Oc3ccnc(N)c3)cc2Cl)c(=O)n(-c2ccccc2)n1C [Ex. 12]
b. Cc1c(C(=O)Nc2ccc(Oc3ccnc(N)c3)c(F)c2F)c(=O)n(-c2ccccc2)n1C [Ex. 5]
c. Cc1c(C(=O)Nc2cc(F)c(Oc3ccnc(N)c3)cc2F)c(=O)n(-c2ccccc2)n1C [Ex. 8]
hey, can you rank those compounds up there by clearance (CL) after iv dosing? biggest number first please Give your ranking as a list of the labels in the requested order.
b, a, c

====

pKd: −log10 of the molar value.
In what follows, each item is paired with its pKd for UniProt P35968.
Sequence (P35968 20-1356): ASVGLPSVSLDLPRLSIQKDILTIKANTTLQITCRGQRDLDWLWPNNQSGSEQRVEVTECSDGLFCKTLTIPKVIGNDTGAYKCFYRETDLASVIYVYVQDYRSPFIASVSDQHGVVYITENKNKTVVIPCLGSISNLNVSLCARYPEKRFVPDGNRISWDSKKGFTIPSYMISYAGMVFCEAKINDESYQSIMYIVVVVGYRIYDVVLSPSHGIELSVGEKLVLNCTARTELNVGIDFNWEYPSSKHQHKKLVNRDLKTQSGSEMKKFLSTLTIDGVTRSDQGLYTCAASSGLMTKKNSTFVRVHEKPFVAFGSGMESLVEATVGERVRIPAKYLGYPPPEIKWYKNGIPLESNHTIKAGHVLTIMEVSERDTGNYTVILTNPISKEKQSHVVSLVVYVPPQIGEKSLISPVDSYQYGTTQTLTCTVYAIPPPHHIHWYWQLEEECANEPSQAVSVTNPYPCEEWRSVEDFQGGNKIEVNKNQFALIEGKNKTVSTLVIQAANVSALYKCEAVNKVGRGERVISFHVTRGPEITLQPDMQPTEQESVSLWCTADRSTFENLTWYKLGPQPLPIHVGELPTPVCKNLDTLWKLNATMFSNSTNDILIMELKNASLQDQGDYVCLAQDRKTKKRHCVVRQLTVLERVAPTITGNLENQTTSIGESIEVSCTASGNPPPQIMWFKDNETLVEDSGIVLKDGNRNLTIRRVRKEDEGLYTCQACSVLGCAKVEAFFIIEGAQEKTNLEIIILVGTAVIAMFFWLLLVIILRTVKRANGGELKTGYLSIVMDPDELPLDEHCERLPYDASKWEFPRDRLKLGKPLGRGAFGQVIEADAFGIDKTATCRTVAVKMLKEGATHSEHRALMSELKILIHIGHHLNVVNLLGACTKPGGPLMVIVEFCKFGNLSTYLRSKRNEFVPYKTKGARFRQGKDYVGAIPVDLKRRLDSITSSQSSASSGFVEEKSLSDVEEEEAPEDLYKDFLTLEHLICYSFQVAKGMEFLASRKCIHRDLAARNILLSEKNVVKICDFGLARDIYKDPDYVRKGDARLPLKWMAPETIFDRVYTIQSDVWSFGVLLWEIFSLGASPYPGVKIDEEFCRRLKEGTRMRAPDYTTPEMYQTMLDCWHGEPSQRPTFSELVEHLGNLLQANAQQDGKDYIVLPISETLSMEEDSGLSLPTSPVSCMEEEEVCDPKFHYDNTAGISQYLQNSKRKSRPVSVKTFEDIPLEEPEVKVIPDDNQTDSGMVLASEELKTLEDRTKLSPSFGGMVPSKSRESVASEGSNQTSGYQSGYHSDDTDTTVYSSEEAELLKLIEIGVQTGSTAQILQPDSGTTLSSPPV
quantity.measured: pKd

Guide cases for pKd, answers given:
molecule.smiles	pKd
CC(=O)Nc1nccc(Oc2ccc(NC(=O)c3c(C)n(C)n(-c4ccccc4)c3=O)cc2F)c1Cl	6.27
CC(=O)Nc1cc(Oc2ccc(NC(=O)c3c(C)n(C)n(-c4ccccc4)c3=O)c(Cl)c2)ccn1	6.24
CC(=O)Nc1cc(Oc2ccc(NC(=O)c3c(C)n(C)n(-c4ccccc4)c3=O)cc2F)ccn1	7.89
Cc1c(C(=O)Nc2ccc(Oc3ccnc(N)c3Cl)cn2)c(=O)n(-c2ccccc2)n1C	7.59
CC(=O)Nc1cc(Oc2ccc(NC(=O)c3c(C)n(C)n(-c4ccccc4)c3=O)nc2)ccn1	7.60

1. Cc1c(C(=O)Nc2ccc(Oc3ccnc(NC(=O)N4CCOCC4)c3)cn2)c(=O)n(-c2ccccc2)n1C
2. [2H]c1cc(Oc2ccnc(N)c2)ccc1NC(=O)c1c(C)n(C)n(-c2ccccc2)c1=O
3. CC(=O)Nc1nccc(Oc2ccc(NC(=O)c3c(C)n(C)n(-c4ccccc4)c3=O)nc2)c1Cl
In this exercise, place the 3 compounds in ascending sequence of their recorded pKd. Give your ranking as a list of the labels in the requested order.
2, 3, 1
(2: 5.42, 3: 5.80, 1: 7.41)

====

- test.description: Compound stability in human liver microsomes
- Type: in vitro ADME
- assay.setup: pH 7.4; human liver microsomes 0.5 mg protein/mL, compound 5 μM, NADPH, 37° C.; read-out: Human T1/2
quantity.measured: half-life at 5 μM (h)

molecule.smiles	observed.result
Cc1c(C(=O)Nc2ccc(Oc3ccnc(N)c3)cc2F)c(=O)n(-c2ccccc2)n1C	2.09

a. Cc1c(C(=O)Nc2ccc(Oc3ccnc(N)c3Cl)cc2F)c(=O)n(-c2ccccc2)n1C
b. Cc1c(C(=O)Nc2ccc(Oc3ccnc(N)c3Cl)c(F)c2)c(=O)n(-c2ccccc2)n1C
Which record would sort first by descending half-life at 5 μM, a or b ? Identify your selection by its label.
b
(b: 12.4 h, a: 2.44 h)

====

- test.description: Pharmacokinetics after intravenous and oral administration in rats
- Assay type: in vivo
- assay.setup: oral bioavailability, iv dose 2 mg/kg, oral dose not given
- Description: The compounds disclosed herein are assessed in pharmacokinetic studies in mice, rats, dogs or monkeys. The compounds are administered as a water solution, 2% HPMC+1% TWEEN®80 in water solution, 5% DMSO+5% solutol in saline, 4% MC suspension or capsule. For the intravenous administration, the animals are generally given at 1 or 2 mg/kg dose. […] The plasma solutions are collected, stored at −20° C. or −70° C. until analyzed by LC/MS/MS as described above.
quantity.measured: F (%)

Guide cases for F, answers given:
molecule	observed.result
CC(=O)Nc1cc(Oc2ccc(NC(=O)c3c(C)n(C)n(-c4ccccc4)c3=O)nc2)ccn1 [Ex. 17]	59.7
Cc1c(C(=O)Nc2ccc(Oc3ccnc(N)c3)cc2F)c(=O)n(-c2ccccc2)n1C [Ex. 30]	54.4

P. Cc1c(C(=O)Nc2ccc(Oc3ccnc(N)c3)c(F)c2F)c(=O)n(-c2ccccc2)n1C [Ex. 5]
Q. Cc1c(C(=O)Nc2ccc(Oc3ccnc(N)c3)cc2Cl)c(=O)n(-c2ccccc2)n1C [Ex. 12]
R. Cc1c(C(=O)Nc2ccc(Oc3ccnc(N)c3Cl)cc2F)c(=O)n(-c2ccccc2)n1C [Ex. 31]
hey, can you rank those molecules up there by F? biggest number first please Give your ranking as a list of the labels in the requested order.
Q, R, P

====

- test.description: Pharmacokinetics after intravenous and oral administration in rats
- Assay type: in vivo
- assay.setup: rat, plasma, iv dosing, 1 mg/kg, read-out: Vss
quantity.measured: Vd (L/kg)

Guide cases for Vd, answers given:
molecule.smiles	unit.of.measurement	Vd
Cc1c(C(=O)Nc2ccc(Oc3ccnc(N)c3Cl)cc2)c(=O)n(-c2ccccc2)n1C	L/kg	1.75
Cc1c(C(=O)Nc2cc(F)c(Oc3ccnc(NC(=O)N4CCOCC4)c3)cc2F)c(=O)n(-c2ccccc2)n1C	L/kg	0.53
Cc1c(C(=O)Nc2ccc(Oc3ccnc(NC(=O)N4CCOCC4)c3)cn2)c(=O)n(-c2ccccc2)n1C	L/kg	0.36

a. Cc1c(C(=O)Nc2ccc(Oc3ccnc(N)c3)cc2)c(=O)n(-c2ccccc2)n1C
b. CC(=O)Nc1cc(Oc2cc(F)c(NC(=O)c3c(C)n(C)n(-c4ccccc4)c3=O)cc2F)ccn1
Which has the smaller recorded Vd, a or b ? Identify your selection by its label.
b

====

- study.system: c-Met (h) (Homo sapiens, UniProt P08581)
- Sequence (P08581 25-1390): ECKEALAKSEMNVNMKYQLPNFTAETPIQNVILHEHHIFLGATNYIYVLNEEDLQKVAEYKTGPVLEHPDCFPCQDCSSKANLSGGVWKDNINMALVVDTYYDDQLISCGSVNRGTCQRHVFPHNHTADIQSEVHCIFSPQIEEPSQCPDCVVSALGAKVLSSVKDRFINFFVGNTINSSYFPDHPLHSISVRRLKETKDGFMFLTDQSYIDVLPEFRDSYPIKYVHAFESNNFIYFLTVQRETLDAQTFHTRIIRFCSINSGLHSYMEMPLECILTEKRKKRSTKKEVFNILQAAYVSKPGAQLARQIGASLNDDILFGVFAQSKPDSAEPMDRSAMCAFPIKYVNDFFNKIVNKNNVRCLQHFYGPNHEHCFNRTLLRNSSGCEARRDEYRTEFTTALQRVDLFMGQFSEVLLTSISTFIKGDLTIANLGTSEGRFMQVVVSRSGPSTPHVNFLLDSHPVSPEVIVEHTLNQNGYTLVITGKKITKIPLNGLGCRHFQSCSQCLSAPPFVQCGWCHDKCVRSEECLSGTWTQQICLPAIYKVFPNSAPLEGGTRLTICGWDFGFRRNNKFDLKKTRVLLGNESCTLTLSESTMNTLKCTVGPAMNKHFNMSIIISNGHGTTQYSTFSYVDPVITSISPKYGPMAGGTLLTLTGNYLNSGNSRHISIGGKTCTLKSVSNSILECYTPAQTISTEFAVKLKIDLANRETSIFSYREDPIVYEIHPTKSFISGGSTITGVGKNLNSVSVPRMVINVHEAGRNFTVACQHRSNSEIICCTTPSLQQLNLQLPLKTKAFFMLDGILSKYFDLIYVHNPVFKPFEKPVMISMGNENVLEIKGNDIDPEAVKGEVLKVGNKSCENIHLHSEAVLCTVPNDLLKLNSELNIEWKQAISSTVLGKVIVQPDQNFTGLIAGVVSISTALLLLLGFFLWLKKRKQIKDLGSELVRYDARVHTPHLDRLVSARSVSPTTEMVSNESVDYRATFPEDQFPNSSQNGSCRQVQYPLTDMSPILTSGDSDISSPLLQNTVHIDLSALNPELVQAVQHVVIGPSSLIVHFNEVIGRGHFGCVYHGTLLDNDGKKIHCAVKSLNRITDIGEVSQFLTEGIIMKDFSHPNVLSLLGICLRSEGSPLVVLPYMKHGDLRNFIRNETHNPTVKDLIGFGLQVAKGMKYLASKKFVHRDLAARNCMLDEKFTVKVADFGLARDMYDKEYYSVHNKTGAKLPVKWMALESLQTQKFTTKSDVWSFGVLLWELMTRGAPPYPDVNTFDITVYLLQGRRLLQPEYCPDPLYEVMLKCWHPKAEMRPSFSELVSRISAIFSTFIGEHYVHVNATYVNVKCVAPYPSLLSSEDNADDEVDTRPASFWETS
pIC50: −log10 of the molar value.
quantity.measured: pIC50

A. Cc1c(C(=O)Nc2ccc(Oc3ccnc(N)c3)c(F)c2)c(=O)n(-c2ccccc2)n1C
B. Cc1c(C(=O)Nc2ccc(Oc3ccnc(N)c3)cc2)c(=O)n(-c2ccccc2)n1C
Which record would sort first by descending pIC50, A or B ? Identify your selection by its label.
A

====

- test.description: Pharmacokinetics after intravenous and oral administration in rats
- Assay type: in vivo
- assay.setup: rat, plasma, iv dosing, 2 mg/kg
quantity.measured: AUC(0-t) (ng·h/mL)

molecule	AUC(0-t), ng·h/mL
Cc1c(C(=O)Nc2ccc(Oc3ccnc(N)c3Cl)cc2F)c(=O)n(-c2ccccc2)n1C [Ex. 31]	3910
Cc1c(C(=O)Nc2ccc(Oc3ccnc(N)c3)cc2Cl)c(=O)n(-c2ccccc2)n1C [Ex. 12]	2120
Cc1c(C(=O)Nc2ccc(Oc3ccnc(N)c3)cc2F)c(=O)n(-c2ccccc2)n1C [Ex. 30]	1490
CC(=O)Nc1cc(Oc2ccc(NC(=O)c3c(C)n(C)n(-c4ccccc4)c3=O)cc2F)ccn1 [Ex. 23]	56600
CC(=O)Nc1cc(Oc2ccc(NC(=O)c3c(C)n(C)n(-c4ccccc4)c3=O)nc2)ccn1 [Ex. 17]	69900
Cc1c(C(=O)Nc2cc(F)c(Oc3ccnc(N)c3Cl)cc2F)c(=O)n(-c2ccccc2)n1C [Ex. 11]	3340
Cc1c(C(=O)Nc2ccc(Oc3ccnc(N)c3)c(F)c2)c(=O)n(-c2ccccc2)n1C [Ex. 22]	2510

A. Cc1c(C(=O)Nc2ccc(Oc3ccnc(N)c3)c(F)c2F)c(=O)n(-c2ccccc2)n1C [Ex. 5]
B. Cc1c(C(=O)Nc2cc(F)c(Oc3ccnc(N)c3)cc2F)c(=O)n(-c2ccccc2)n1C [Ex. 8]
Which has the smaller recorded AUC(0-t), A or B ? Identify your selection by its label.
A
